assay: Brain concentrations in mice after i.v. or p.o. administration, LC-MS; format: in vivo; details: mouse, brain, po, 5 mg/kg p.o. of administered compound, 0.5 h, read-out: piperazine-N-ox analyzed in brain
metric: concentration at 0.5 h (ng/g)
# number only, unit ng/g dropped from output

Data request, read-out concentration at 0.5 h, for [O-][N+]1(Cc2cncc(-c3ccc(F)cc3)c2)CCN(c2cccc3c2OCCO3)CC1 [piperazine N-oxide]
2.6

* * *

Observed Ki, system Serotonin-5-HT2A (Homo sapiens, UniProt P28223).
# number only, unit nM dropped from output

[O-][n+]1cc(CN2CCN(c3cccc4c3OCCO4)CC2)cc(-c2ccc(F)cc2)c1 [pyridine N-oxide]    500

Next item in the queue.
Which Ki is reported with Serotonin-5-HT2A (Homo sapiens, UniProt P28223) for this entry: Fc1ccc(-c2cncc(CN3CCN(c4cccc5c4OCCO5)CC3)c2)cc1 [SLV313, reference compound] ?
250
